Each recorded value in this set is attributed to patent US20250313632A1.

- measurementTarget: human B7-H3 protein (human) (UniProt Q5ZPR3)
- testDetails: Octet (BLI) epitope binning on captured human B7-H3; competitor AHP06345
Exercise: state measured inhibition ratio for each of the binders provided.
Kindly provide the numeric value in % only, without the unit symbol.

Report measured inhibition ratio; entry is AHP05564 (antibody, V domains shown) VH: EVQLVETGGGVVQPGRSLRLSCAASGFTFSSSGMHWVRQAPGKGLEWVAVISYDVTNKYYVDSVKGRFTISRDNSENTLYLQMNSLRAEDTGVYYCVRDGGPRWLGWYFDLWGRGTLVTVSS VL: NIQMTQSPSSQSASVGDRVTITCRANQAIANSLAWYQQKPGKAPKLLLFGTSLLHSGVPSRFSGSGSGTEYTLTISSLQPDDFGTYYCQQYFSFPRTFGQGTQVDVY
5.92

Return the recorded inhibition ratio value; entry: 106A5B3 (antibody, V domains shown) VH: EVQLVESGGDLVKPGGSLKLSCAASGFTFSSYGMSWVRQTPDKRLEWVATISSGGSYIYYPDSMKGRFTISRDNAKNTLYLQMSSLQSEDTAIYYCASDYGSRYFDYWGQGTTLTVSS VL: QIVLTQSPAIMSASPGEKVTMTCSASSSVIYMSWYKQKPGSSPRLLIYDTSNLASGVPVRFSGSGSGTSYSLTISRMEAEDAATYYCQQWSSYPRTFGGGTKLEIK
-13

Give the reported value of inhibition ratio for this record: 429H9F10 (antibody, V domains shown) VH: QIQLVQSGPELKKPGETVKISCKASGYTFTYYGLNWVKQAPGKGLRWMGWINTSSGVPTYADDFKGRFAISLESSASTVFLEISNLKNEDTAAYFCAKDDGYFYTMDHWGQGTSVTVSS VL: DIVMTQPPLSLPVSLGDQASISCRSSQSLVHNNGKTYLHWYLQKPGQSPKLLIYKVSNRFSGVPDRFSGSGSGTDFTLKISRVETEDLGVYFCSQSTQVPWTFGGGTKLEIK
-11.5

Please give the documented inhibition ratio of 62H9H5 (antibody, V domains shown) VH: QVQLQQSGAELAKPGASVKMSCKASGYTFTNYWIHWVKQRPGQGLEWIGYISPSTGYTEYNQKFKGKATLTAVKSSSTAFMQLSSLTSEDSAVYFCARGTGYWGQGTTLTVSS VL: DIQMTQSPASLSASVGESVTITCRASENIYSFFAWYQQKEGKSPQLLVYNAKTLEEGVPSRFSGSGSGTQFSLKINSLQPEDFGSYYCQHNYVSPFTFGSGTKLEIK
-7.1

Tell me measured inhibition ratio for AHP06358 (antibody, V domains shown) VH: EVQLVQSGAEVKKPGASVKVSCKASGYTFTSYGISWVRQAPGQGLEWMGWISAYNGNTNYAQKLQGRVTMTTDTSTSTAYMELRSLRSDDTAVYYCARDSPLQIAVAGYYYGMDVWGQGTTVTVSS VL: NFMLTQPHSVSESPGKTVTISCTRSSGSIVSGYVQWYQQRPGSAPSTVIYEHNQRPSGVPDRFSGSIDSSSNSASLTISGLRTEDEADYYCQSYDSRNMIFGGGTKLTVL please.
-10.6
